From: patent US20230120736A1

# target.or.test.system: T1, human CD98 ECD (Homo sapiens, UniProt P08195)
# T1 construct: Human CD98 ECD with C-terminal His-tag
# T1 sequence (P08195 with tags, fused parts or gaps): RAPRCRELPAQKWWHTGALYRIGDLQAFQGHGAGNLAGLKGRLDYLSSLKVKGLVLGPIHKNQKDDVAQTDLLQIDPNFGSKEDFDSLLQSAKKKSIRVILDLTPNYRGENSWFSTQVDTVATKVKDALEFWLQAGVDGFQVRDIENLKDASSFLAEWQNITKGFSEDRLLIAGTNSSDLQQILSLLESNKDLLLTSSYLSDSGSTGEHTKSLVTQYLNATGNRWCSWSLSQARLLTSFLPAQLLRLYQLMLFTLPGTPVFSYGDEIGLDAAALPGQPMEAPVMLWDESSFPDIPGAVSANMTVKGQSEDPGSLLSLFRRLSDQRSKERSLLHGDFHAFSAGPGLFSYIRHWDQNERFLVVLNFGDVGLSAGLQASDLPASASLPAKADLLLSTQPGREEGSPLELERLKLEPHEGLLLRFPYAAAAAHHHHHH
# experiment.description: Biacore surface plasmon resonance binding kinetics (anti-Fc capture)
# test.context: huCD98 ECD
property.measured: ka (M⁻¹ s⁻¹)
Reply with just the number (in M⁻¹ s⁻¹).

Supply reported ka belonging to this molecule: huAb107: "heavy chain variable sequence of huAb107 is provided in SEQ ID NO: 114"; "light chain variable sequence ... in SEQ ID NO: 112" (antibody, V domains shown) VH: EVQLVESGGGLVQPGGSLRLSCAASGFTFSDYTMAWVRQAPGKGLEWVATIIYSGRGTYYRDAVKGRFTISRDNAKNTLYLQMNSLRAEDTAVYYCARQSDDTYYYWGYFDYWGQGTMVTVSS VL: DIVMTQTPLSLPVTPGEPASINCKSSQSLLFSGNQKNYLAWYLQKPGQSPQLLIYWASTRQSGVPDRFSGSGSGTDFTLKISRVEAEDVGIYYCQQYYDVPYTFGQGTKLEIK
110000

Tell me its ka given huAb15v7 (antibody, V domains shown) VH: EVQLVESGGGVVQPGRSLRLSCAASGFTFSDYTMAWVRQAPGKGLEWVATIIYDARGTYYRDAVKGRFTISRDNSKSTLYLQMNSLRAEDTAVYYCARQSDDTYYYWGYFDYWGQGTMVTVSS VL: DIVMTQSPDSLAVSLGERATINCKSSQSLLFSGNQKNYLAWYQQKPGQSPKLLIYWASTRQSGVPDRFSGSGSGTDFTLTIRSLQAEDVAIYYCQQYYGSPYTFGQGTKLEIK as the entry.
35000
